Target: SARS-CoV-2 3CL-protease (Severe acute respiratory syndrome coronavirus 2)
metric-name: IC50

// worked examples, IC50 included
>  <smiles-entry>
CN(C(=O)Cc1ccccn1)[C@@H](CC(C)(C)F)C(=O)N1C[C@]2(C[C@H]1C#N)C(=O)Nc1ccc(Cl)cc12

>  <IC50>
< 100 nM

$$$$
>  <smiles-entry>
CN(C(=O)c1cnn(C2CCCCC2)c1)[C@@H](CC1CC1)C(=O)N1C[C@]2(C[C@H]1C#N)C(=O)Nc1ccccc12

>  <IC50>
< 100 nM

$$$$

Enquiry: // IC50 lookup, key: `CC(C)C[C@@H](C(=O)N1C[C@]2(C[C@H]1C#N)C(=O)Nc1ccccc12)N(C)C(=O)c1cn(-c2ccc(F)cc2)nn1`
Return: < 100 nM

Ref: patent US12540141B2
